B1: EEHEE_rd3_1049 (parent)
chain: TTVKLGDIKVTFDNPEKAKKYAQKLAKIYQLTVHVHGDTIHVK

variants of: B1; test: folding stability dG (cDNA display proteolysis); higher = more stable; conditions: PBS, room temperature
Definition: the class of an entry is the range in low: < 1 kcal/mol; middle: ≥ 1 kcal/mol and < 2 kcal/mol; high: ≥ 2 kcal/mol that contains its folding stability dG.

MUTATION SPEC	GROUP
V35F	high
L25E	low
K4A	middle
T39L	middle
G37T	low
L31P	low
T11E	middle
H41Q	middle
G6N	middle
T1R	middle
E16S	middle
V42Y	low
G37L	middle
K17N	middle
E16C	high
E16N	middle
K24M	high
I8W	high
F12Q	low
A22M	middle
I40K	low
D38F	middle
V3K	low
V42M	middle
L31K	low
P15S	middle
K20C	high
P15E	middle
K43N	middle
A26Q	low
K4Y	high
A22Q	low
A22Y	low
D7G	high
Q23L	high
V33W	middle
K43D	middle
